System: TK-10
assay_method_text: Cytotoxicity against human TK10 cells assessed as cell growth at 0.1 uM after 48 hrs by sulforhodamine B assay relative to control
Assay type: functional
assay_context: TK-10, 48 h, read-out: Activity
parameter: growth at 0.1 µM

chemical_structure=COc1ccc(-c2cc(/C=C/C(=O)c3ccc(N)cc3)[nH]n2)cc1 parameter="growth at 0.1 µM" obs_value=95%
chemical_structure=COc1cc(C(=O)/C=C/c2cc(-c3ccc4c(c3)OCO4)n[nH]2)cc(OC)c1OC parameter="growth at 0.1 µM" obs_value=92%
chemical_structure=COc1cc(C(=O)/C=C/c2cc(-c3cc(OC)c(OC)c(OC)c3)n[nH]2)cc(OC)c1OC parameter="growth at 0.1 µM" obs_value=109%
chemical_structure=COc1cc(-c2cc(/C=C/C(=O)c3ccc(N)cc3)[nH]n2)cc(OC)c1OC parameter="growth at 0.1 µM" obs_value=100%
